B1: Osa-1-4 twister ribozyme (parent)
chain: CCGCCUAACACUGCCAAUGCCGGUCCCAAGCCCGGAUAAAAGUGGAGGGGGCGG

# Variants of: B1
# Experiment Description: self-cleavage, relative activity (ratio to wild type); higher = more cleavage; co-transcriptional
Short version: self-cleavage at least 0.07 is Satisfied, less is Not satisfied.

Variant Spec: G35A U37G
Category: Satisfied
--
Variant Spec: A36C G42U
Category: Not satisfied
--
Variant Spec: C21U G30A
Category: Not satisfied
--
Variant Spec: A28U A39G
Category: Satisfied
--
Variant Spec: C33G U24G
Category: Not satisfied
--
Variant Spec: C15U G45C
Category: Not satisfied
--
Variant Spec: C25G U37C
Category: Satisfied
--
Variant Spec: C26A G22C
Category: Not satisfied
--
Variant Spec: G19C U24G
Category: Not satisfied
--
Variant Spec: A16U A7U
Category: Not satisfied

Reference source: the RNAGym collection of RNA variant scans (doi:10.1002/anie.201605470)
